From: paper PMC12040169

test: in vitro; conditions: human, hela cells, % viability
Flag rule - viability at 28.5 h, 10 µM less than 90% flags rule met; the remaining entries get rule not met.

* COc1ncc(-c2nccnc2NCC(C)O)c(OC)n1 (stereo not shown) [CBK036970] | rule not met
* O=C(NCCN1CCCCC1)C1CC(=O)N(c2ccccc2F)C1 (stereo not shown) [CBK305148] | rule met
* O=C(O)C1CCCN1C(=O)c1ccc(C#CC2(O)CCCCC2)cc1 (stereo not shown) [CBK287022] | rule not met
* O=C1CC[C@@H](NCc2ccoc2)[C@H](c2cc(F)cc(F)c2)N1 [CBK282912] | rule not met
* Cc1cccc(Nc2nc(N)nc(CC(=O)CSc3ccc(Cl)cc3)n2)c1 [CBK265204] | rule not met
* Cc1ccnc(SCc2c(Cl)cccc2[N+](=O)[O-])n1 [CBK269632] | rule met
* Cc1[nH]nc(Nc2cccc(C(=O)O)c2)c1[N+](=O)[O-] [CBK262725] | rule not met
* O=C(Nc1ccc(S(=O)(=O)Nc2ncccn2)cc1)c1ccc2c(c1)OCCO2 [CBK268132] | rule not met
* CC(C)Nc1cc(SCc2ccc(F)cc2)ncn1 [CBK107158] | rule not met
* Nc1cc2cccnc2c(-c2cccc(C(F)(F)F)c2)n1 [CBK081177] | rule not met
* Cc1sc2c(C3CCN(C(=O)C4CC4)CC3)nc(C)n2c1C [CBK285298] | rule not met
* CN1CCN(c2cccc(-c3cc(C(F)(F)F)cc(C(F)(F)F)c3)n2)CC1 [CBK036982] | rule not met
* COCC(=O)N[C@H]1CCN2C(=O)c3cc(-c4ccc(F)cc4F)ccc3NC(=O)[C@@H]2C1 [CBK289561] | rule met
* Cn1cc(CCC(=O)NC(Cc2ccncc2)[C@H]2C[C@H](O)C2)cn1 (stereo partly shown) [CBK307292] | rule met
